Experiment: Efflux ratio in wild type MDCK2 cells at 1 uM after 1 to 4 hrs
Type: ADME, cell-based, Canis lupus familiaris, MDCK-II
Details: dog, MDCK
measuredParameter: efflux ratio at 1 µM
Write the value as a bare number.

Quickly give me recorded efflux ratio at 1 µM for CNC(=O)c1ccccc1Sc1ccc2c(/C=C/c3ccccn3)n[nH]c2c1
1.4

====

Assay: Drug level in brain of Abcb1a/1b;Abcg2 (-/-) FVB mouse at 10 mg/kg, po after 1 hr by liquid chromatography-tandem mass spectrometry
Type: ADME, organism-based
Parameters: dose 10 mg/kg, route oral
Details: read-out: Drug uptake
measuredParameter: concentration at 1 h (ng/g)
// units = ng/g; emit number, no label

Quickly give me recorded concentration at 1 h for CNC(=O)c1ccccc1Sc1ccc2c(/C=C/c3ccccn3)n[nH]c2c1
1980

====

Experiment: Drug level in brain of Abcg2 (-/-) FVB mouse at 10 mg/kg, po after 4 hrs by liquid chromatography-tandem mass spectrometry
Type: ADME, organism-based
Parameters: dose 10 mg/kg, route oral
Conditions: read-out: Drug uptake
measuredParameter: concentration at 4 h (ng/g)
// units = ng/g; emit number, no label

Quickly give me recorded concentration at 4 h for CNC(=O)c1ccccc1Sc1ccc2c(/C=C/c3ccccn3)n[nH]c2c1 [AXITINIB]
7

====

Experiment: Drug level in brain of Abcg2 (-/-) FVB mouse at 10 mg/kg, po after 1 hr by liquid chromatography-tandem mass spectrometry
Format: ADME, organism-based
Design: dose 10 mg/kg, route oral
Conditions: read-out: Drug uptake
measuredParameter: concentration at 1 h (ng/g)
// units = ng/g; emit number, no label

Quickly give me recorded concentration at 1 h for CNC(=O)c1ccccc1Sc1ccc2c(/C=C/c3ccccn3)n[nH]c2c1
80

====

Molecular target: ABCG2 (Homo sapiens, UniProt Q9UNQ0)
Sequence (Q9UNQ0 whole entry): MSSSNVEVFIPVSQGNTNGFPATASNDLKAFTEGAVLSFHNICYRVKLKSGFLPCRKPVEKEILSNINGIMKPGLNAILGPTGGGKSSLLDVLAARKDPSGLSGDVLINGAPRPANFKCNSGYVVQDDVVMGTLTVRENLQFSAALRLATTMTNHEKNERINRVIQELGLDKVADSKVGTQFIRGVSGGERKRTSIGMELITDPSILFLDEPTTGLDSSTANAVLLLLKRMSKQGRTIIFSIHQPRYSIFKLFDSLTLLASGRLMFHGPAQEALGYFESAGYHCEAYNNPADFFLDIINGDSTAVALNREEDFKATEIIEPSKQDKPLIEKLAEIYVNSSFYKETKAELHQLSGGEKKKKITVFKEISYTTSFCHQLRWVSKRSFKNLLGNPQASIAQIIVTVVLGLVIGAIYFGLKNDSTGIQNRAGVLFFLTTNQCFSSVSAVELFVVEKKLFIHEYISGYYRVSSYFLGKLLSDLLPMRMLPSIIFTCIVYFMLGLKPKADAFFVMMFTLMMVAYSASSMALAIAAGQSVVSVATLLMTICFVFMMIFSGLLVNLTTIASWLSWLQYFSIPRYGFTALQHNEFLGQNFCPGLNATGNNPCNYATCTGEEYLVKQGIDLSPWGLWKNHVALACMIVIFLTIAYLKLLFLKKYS
Test: Drug transport in MDCK2 cells expressing human ABCG2 assessed as transporter-mediated efflux ratio at 1 uM after 1 to 4 hrs
Assay type: ADME, cell-based
measuredParameter: efflux ratio at 1 µM

Quickly give me recorded efflux ratio at 1 µM for CNC(=O)c1ccccc1Sc1ccc2c(/C=C/c3ccccn3)n[nH]c2c1
1.3

====

Target: ABCB1 (Homo sapiens)
Sequence (P08183 whole entry): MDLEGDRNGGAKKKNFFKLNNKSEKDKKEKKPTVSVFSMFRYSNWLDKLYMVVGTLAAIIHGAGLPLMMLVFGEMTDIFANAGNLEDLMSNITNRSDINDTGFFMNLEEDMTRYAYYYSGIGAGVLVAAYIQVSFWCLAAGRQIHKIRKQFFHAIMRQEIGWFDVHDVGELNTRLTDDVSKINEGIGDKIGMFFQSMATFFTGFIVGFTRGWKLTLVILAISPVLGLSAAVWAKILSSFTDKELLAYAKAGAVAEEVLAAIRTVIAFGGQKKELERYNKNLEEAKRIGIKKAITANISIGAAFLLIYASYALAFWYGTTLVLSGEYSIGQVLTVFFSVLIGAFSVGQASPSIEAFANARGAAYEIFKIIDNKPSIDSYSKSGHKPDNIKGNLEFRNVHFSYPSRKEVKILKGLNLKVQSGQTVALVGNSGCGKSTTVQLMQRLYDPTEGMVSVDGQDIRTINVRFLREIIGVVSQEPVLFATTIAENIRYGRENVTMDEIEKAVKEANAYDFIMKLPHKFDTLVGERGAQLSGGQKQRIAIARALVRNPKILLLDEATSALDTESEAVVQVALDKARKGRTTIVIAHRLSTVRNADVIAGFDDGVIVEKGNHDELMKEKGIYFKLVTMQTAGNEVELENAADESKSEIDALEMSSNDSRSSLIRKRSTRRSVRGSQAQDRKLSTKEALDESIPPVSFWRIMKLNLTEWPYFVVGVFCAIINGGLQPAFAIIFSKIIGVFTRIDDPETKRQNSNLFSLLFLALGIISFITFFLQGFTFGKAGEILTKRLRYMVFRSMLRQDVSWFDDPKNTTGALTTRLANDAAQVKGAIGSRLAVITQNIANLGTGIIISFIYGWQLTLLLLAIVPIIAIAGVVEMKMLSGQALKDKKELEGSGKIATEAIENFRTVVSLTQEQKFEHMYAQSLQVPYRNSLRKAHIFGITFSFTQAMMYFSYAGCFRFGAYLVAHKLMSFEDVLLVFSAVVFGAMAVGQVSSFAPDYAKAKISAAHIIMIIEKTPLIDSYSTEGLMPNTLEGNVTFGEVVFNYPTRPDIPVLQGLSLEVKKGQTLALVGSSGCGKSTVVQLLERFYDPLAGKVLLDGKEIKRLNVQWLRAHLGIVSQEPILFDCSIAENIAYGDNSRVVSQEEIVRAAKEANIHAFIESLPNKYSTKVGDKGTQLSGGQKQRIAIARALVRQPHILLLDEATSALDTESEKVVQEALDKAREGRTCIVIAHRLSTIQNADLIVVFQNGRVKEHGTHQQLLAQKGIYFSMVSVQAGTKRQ
Test: Drug transport in MDCK2 cells expressing human ABCB1 assessed as transporter-mediated efflux ratio at 1 uM after 1 to 4 hrs
Format: ADME, cell-based
Conditions: MDCK-MDR1
measuredParameter: efflux ratio at 1 µM

Quickly give me recorded efflux ratio at 1 µM for CNC(=O)c1ccccc1Sc1ccc2c(/C=C/c3ccccn3)n[nH]c2c1
5.3

====

Assay: Drug level in brain of FVB mouse at 10 mg/kg, po after 4 hrs by liquid chromatography-tandem mass spectrometry
Assay type: ADME, organism-based
Parameters: dose 10 mg/kg, route oral
Details: read-out: Drug uptake
measuredParameter: concentration at 4 h (ng/g)
// units = ng/g; emit number, no label

Quickly give me recorded concentration at 4 h for CNC(=O)c1ccccc1Sc1ccc2c(/C=C/c3ccccn3)n[nH]c2c1
6

====

Test: Drug level in brain of Abcb1a/1b (-/-) FVB mouse at 10 mg/kg, po after 1 hr by liquid chromatography-tandem mass spectrometry
Type: ADME, organism-based
Parameters: dose 10 mg/kg, route oral
Settings: read-out: Drug uptake
measuredParameter: concentration at 1 h (ng/g)
// units = ng/g; emit number, no label

Quickly give me recorded concentration at 1 h for CNC(=O)c1ccccc1Sc1ccc2c(/C=C/c3ccccn3)n[nH]c2c1 [AXITINIB]
640

====

Experiment: AUC (0 to 4 hrs) in FVB mouse plasma at 10 mg/kg, po by liquid chromatography-tandem mass spectrometry
Assay type: ADME, organism-based
Parameters: time < 4 hr, dose 10 mg/kg, route oral
measuredParameter: AUC(0-t) at 4 h

Quickly give me recorded AUC(0-t) at 4 h for CNC(=O)c1ccccc1Sc1ccc2c(/C=C/c3ccccn3)n[nH]c2c1 [AXITINIB]
2680 ng·h/mL

====

Assay: Drug level in brain of FVB mouse at 10 mg/kg, po after 1 hr by liquid chromatography-tandem mass spectrometry
Type: ADME, organism-based
Parameters: dose 10 mg/kg, route oral
Settings: read-out: Drug uptake
measuredParameter: concentration at 1 h (ng/g)
// units = ng/g; emit number, no label

Quickly give me recorded concentration at 1 h for CNC(=O)c1ccccc1Sc1ccc2c(/C=C/c3ccccn3)n[nH]c2c1 [AXITINIB]
100

====

Assay: AUC (0 to 1 hr) in FVB mouse plasma at 10 mg/kg, po by liquid chromatography-tandem mass spectrometry
Assay type: ADME, organism-based
Design: time < 1 hr, dose 10 mg/kg, route oral
measuredParameter: AUC(0-t) at 1 h
Answer as a quantity: numeral, then unit.

Quickly give me recorded AUC(0-t) at 1 h for CNC(=O)c1ccccc1Sc1ccc2c(/C=C/c3ccccn3)n[nH]c2c1
1090 ng·h/mL

====

Assay: Drug level in brain of Abcb1a/1b;Abcg2 (-/-) FVB mouse at 10 mg/kg, po after 4 hrs by liquid chromatography-tandem mass spectrometry
Type: ADME, organism-based
Set-up: dose 10 mg/kg, route oral
Settings: read-out: Drug uptake
measuredParameter: concentration at 4 h (ng/g)
// units = ng/g; emit number, no label

Quickly give me recorded concentration at 4 h for CNC(=O)c1ccccc1Sc1ccc2c(/C=C/c3ccccn3)n[nH]c2c1
250

====

Assay: AUC (0 to 1 hr) in Abcb1a/1b;Abcg2 (-/-) FVB mouse plasma at 10 mg/kg, po by liquid chromatography-tandem mass spectrometry
Format: ADME, organism-based
Design: time < 1 hr, dose 10 mg/kg, route oral
measuredParameter: AUC(0-t) at 1 h (µg·h/mL)
// units = µg·h/mL; emit number, no label

Quickly give me recorded AUC(0-t) at 1 h for CNC(=O)c1ccccc1Sc1ccc2c(/C=C/c3ccccn3)n[nH]c2c1
1.4

====

Assay: AUC (0 to 1 hr) in Abcg2 (-/-) FVB mouse plasma at 10 mg/kg, po by liquid chromatography-tandem mass spectrometry
Assay type: ADME, organism-based
Parameters: time < 1 hr, dose 10 mg/kg, route oral
measuredParameter: AUC(0-t) at 1 h (ng·h/mL)
// units = ng·h/mL; emit number, no label

Quickly give me recorded AUC(0-t) at 1 h for CNC(=O)c1ccccc1Sc1ccc2c(/C=C/c3ccccn3)n[nH]c2c1 [AXITINIB]
1760

====

Assay: Drug level in brain of Abcb1a/1b (-/-) FVB mouse at 10 mg/kg, po after 4 hrs by liquid chromatography-tandem mass spectrometry
Type: ADME, organism-based
Parameters: dose 10 mg/kg, route oral
Conditions: read-out: Drug uptake
measuredParameter: concentration at 4 h (ng/g)
// units = ng/g; emit number, no label

Quickly give me recorded concentration at 4 h for CNC(=O)c1ccccc1Sc1ccc2c(/C=C/c3ccccn3)n[nH]c2c1
47
